Biological target: Interstitial collagenase (Homo sapiens, UniProt P03956)
Construct: endogenous in cells
Sequence (P03956 100-469): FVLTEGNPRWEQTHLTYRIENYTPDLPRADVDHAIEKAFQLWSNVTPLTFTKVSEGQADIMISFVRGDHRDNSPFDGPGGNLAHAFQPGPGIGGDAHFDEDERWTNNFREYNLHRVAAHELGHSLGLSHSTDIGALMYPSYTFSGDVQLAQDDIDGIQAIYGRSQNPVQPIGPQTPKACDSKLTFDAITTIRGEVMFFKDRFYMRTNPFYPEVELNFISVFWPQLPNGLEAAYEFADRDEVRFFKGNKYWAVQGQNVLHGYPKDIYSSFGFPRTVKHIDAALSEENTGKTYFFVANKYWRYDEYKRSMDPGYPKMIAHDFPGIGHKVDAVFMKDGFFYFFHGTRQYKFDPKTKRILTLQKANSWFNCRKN
Test: Interstitial collagenase inhibiting activity (fluorescence labeled collagen)
Conditions: from human fibroblast cell (Detroit 551); 2 hours at 35° C., pH 7.5
Binarize IC50 at 30 nM; below is YES, at or above is NO.

I wonder whether COCCN1C(=O)C(NC(=O)[C@@H](CC(=O)NO)CC(C)C)Cc2cc3c(cc21)OCO3 (stereo partly drawn) has IC50 below 30 nM. Can you tell?
NO

In the record for COCCOCN1C(=O)[C@@H](NC(=O)[C@@H](CC(=O)NO)CC(C)C)Cc2ccccc21 , is IC50 less than 30 nM?
NO
